Quick reference: inhibition (reported as % activation of signal) of the listed items.
# Target or test system: DNA (cytosine-5)-methyltransferase 1 (Homo sapiens)
# Test: inhibition of DNA methyltransferase DNMT1 – biochemical, molecular beacon, fluorescence, HinP1I cleavage, uHTS, primary screen (AID 588458)
# Measurement context: at 10 µM, active compounds read high
Among all 360,000 compounds or so, about 3,000 (0.83%) were called active. The list comes from a sample in which actives are over-represented; it also holds close analogues and randomly drawn compounds.
Write the answer as a number in %, unit excluded.

Study these solved cases before continuing.
The reported value for COc1ccccc1CCNC(=O)C1CCN(C(=O)/C=C/c2ccccc2)CC1 in terms of inhibition (reported as % activation of signal) is -0.55

The reported value for O=C1CC(Cc2ccc(Cl)cc2)C(=O)N1c1cc(Cl)ccn1 (configuration not stated) in terms of inhibition (reported as % activation of signal) is 1.99

---
The reported value for CC(C)(C)NC(=O)C(c1ccncc1)N(C(=O)CNC(=O)c1ccco1)c1ccc2c(c1)OCO2 (configuration not stated) in terms of inhibition (reported as % activation of signal) is -1.68

The reported value for CCC1(C)Cc2c(sc3[nH]c(=S)n(Cc4ccccc4)c(=O)c23)CO1 (configuration not stated) in terms of inhibition (reported as % activation of signal) is -3.04

The reported value for N/C(=N\S(=O)(=O)c1cc(C(F)(F)F)cc(C(F)(F)F)c1)c1cccs1 in terms of inhibition (reported as % activation of signal) is 3.6

The reported value for CCCCN1C(=O)/C(=C/C=C2/C=Cc3ccccc3N2CC)SC1=S in terms of inhibition (reported as % activation of signal) is 3.13

The reported value for Clc1cc(NC2CCCCC2)ncn1 in terms of inhibition (reported as % activation of signal) is 1.17

The reported value for CC(C)NC(=O)NC(=O)COC(=O)c1ccc(NC(=O)CC#N)cc1 in terms of inhibition (reported as % activation of signal) is -1.52

The reported value for CN1CCN(C(=O)C(=O)c2cn(CC(=O)N3CCCC3)c3ccccc23)CC1 in terms of inhibition (reported as % activation of signal) is 1.12
